# Pseudoaglycone of Cmpd 1 (HPLC area %) 2 Week per entry
Assay: Stability of hydrochloride salts of telavancin on storage (HPLC area % of pseudoaglycone and aglycone impurities)
Assay type: physicochemical
Conditions: stored at 25° C. for 2 weeks, glass vials
The response must be a number in HPLC area % with no trailing unit.

Answered examples (5):
1. CCCCCCCCCCNCCN[C@@]1(C)C[C@H](O[C@H]2[C@H](Oc3c4cc5cc3Oc3ccc(cc3Cl)[C@@H](O)[C@@H](NC(=O)[C@@H](CC(C)C)NC)C(=O)N[C@@H](CC(N)=O)C(=O)N[C@H]5C(=O)N[C@H]3C(=O)N[C@H](C(=O)N[C@H](C(=O)O)c5cc(O)c(CNCP(=O)(O)O)c(O)c5-c5cc3ccc5O)[C@H](O)c3ccc(c(Cl)c3)O4)O[C@H](CO)[C@@H](O)[C@@H]2O)O[C@@H](C)[C@H]1O [3.94, telavancin]; 0.56
2. CCCCCCCCCCNCCN[C@@]1(C)C[C@H](O[C@H]2[C@H](Oc3c4cc5cc3Oc3ccc(cc3Cl)[C@@H](O)[C@@H](NC(=O)[C@@H](CC(C)C)NC)C(=O)N[C@@H](CC(N)=O)C(=O)N[C@H]5C(=O)N[C@H]3C(=O)N[C@H](C(=O)N[C@H](C(=O)O)c5cc(O)c(CNCP(=O)(O)O)c(O)c5-c5cc3ccc5O)[C@H](O)c3ccc(c(Cl)c3)O4)O[C@H](CO)[C@@H](O)[C@@H]2O)O[C@@H](C)[C@H]1O [4.69, telavancin]; 0.62
3. CCCCCCCCCCNCCN[C@@]1(C)C[C@H](O[C@H]2[C@H](Oc3c4cc5cc3Oc3ccc(cc3Cl)[C@@H](O)[C@@H](NC(=O)[C@@H](CC(C)C)NC)C(=O)N[C@@H](CC(N)=O)C(=O)N[C@H]5C(=O)N[C@H]3C(=O)N[C@H](C(=O)N[C@H](C(=O)O)c5cc(O)c(CNCP(=O)(O)O)c(O)c5-c5cc3ccc5O)[C@H](O)c3ccc(c(Cl)c3)O4)O[C@H](CO)[C@@H](O)[C@@H]2O)O[C@@H](C)[C@H]1O [2.42, telavancin]; 0.40
4. CCCCCCCCCCNCCN[C@@]1(C)C[C@H](O[C@H]2[C@H](Oc3c4cc5cc3Oc3ccc(cc3Cl)[C@@H](O)[C@@H](NC(=O)[C@@H](CC(C)C)NC)C(=O)N[C@@H](CC(N)=O)C(=O)N[C@H]5C(=O)N[C@H]3C(=O)N[C@H](C(=O)N[C@H](C(=O)O)c5cc(O)c(CNCP(=O)(O)O)c(O)c5-c5cc3ccc5O)[C@H](O)c3ccc(c(Cl)c3)O4)O[C@H](CO)[C@@H](O)[C@@H]2O)O[C@@H](C)[C@H]1O [5.74, telavancin]; 1.94
5. CCCCCCCCCCNCCN[C@@]1(C)C[C@H](O[C@H]2[C@H](Oc3c4cc5cc3Oc3ccc(cc3Cl)[C@@H](O)[C@@H](NC(=O)[C@@H](CC(C)C)NC)C(=O)N[C@@H](CC(N)=O)C(=O)N[C@H]5C(=O)N[C@H]3C(=O)N[C@H](C(=O)N[C@H](C(=O)O)c5cc(O)c(CNCP(=O)(O)O)c(O)c5-c5cc3ccc5O)[C@H](O)c3ccc(c(Cl)c3)O4)O[C@H](CO)[C@@H](O)[C@@H]2O)O[C@@H](C)[C@H]1O [3.68, telavancin]; 0.51

Data request: Please give measured Pseudoaglycone of Cmpd 1 (HPLC area %) 2 Week of the following entry: CCCCCCCCCCNCCN[C@@]1(C)C[C@H](O[C@H]2[C@H](Oc3c4cc5cc3Oc3ccc(cc3Cl)[C@@H](O)[C@@H](NC(=O)[C@@H](CC(C)C)NC)C(=O)N[C@@H](CC(N)=O)C(=O)N[C@H]5C(=O)N[C@H]3C(=O)N[C@H](C(=O)N[C@H](C(=O)O)c5cc(O)c(CNCP(=O)(O)O)c(O)c5-c5cc3ccc5O)[C@H](O)c3ccc(c(Cl)c3)O4)O[C@H](CO)[C@@H](O)[C@@H]2O)O[C@@H](C)[C@H]1O [4.41, telavancin]
Data returned: 0.53

Data request: Please give measured Pseudoaglycone of Cmpd 1 (HPLC area %) 2 Week of the following entry: CCCCCCCCCCNCCN[C@@]1(C)C[C@H](O[C@H]2[C@H](Oc3c4cc5cc3Oc3ccc(cc3Cl)[C@@H](O)[C@@H](NC(=O)[C@@H](CC(C)C)NC)C(=O)N[C@@H](CC(N)=O)C(=O)N[C@H]5C(=O)N[C@H]3C(=O)N[C@H](C(=O)N[C@H](C(=O)O)c5cc(O)c(CNCP(=O)(O)O)c(O)c5-c5cc3ccc5O)[C@H](O)c3ccc(c(Cl)c3)O4)O[C@H](CO)[C@@H](O)[C@@H]2O)O[C@@H](C)[C@H]1O [4.59, telavancin]
Data returned: 0.72

Data request: Please give measured Pseudoaglycone of Cmpd 1 (HPLC area %) 2 Week of the following entry: CCCCCCCCCCNCCN[C@@]1(C)C[C@H](O[C@H]2[C@H](Oc3c4cc5cc3Oc3ccc(cc3Cl)[C@@H](O)[C@@H](NC(=O)[C@@H](CC(C)C)NC)C(=O)N[C@@H](CC(N)=O)C(=O)N[C@H]5C(=O)N[C@H]3C(=O)N[C@H](C(=O)N[C@H](C(=O)O)c5cc(O)c(CNCP(=O)(O)O)c(O)c5-c5cc3ccc5O)[C@H](O)c3ccc(c(Cl)c3)O4)O[C@H](CO)[C@@H](O)[C@@H]2O)O[C@@H](C)[C@H]1O [5.60, telavancin]
Data returned: 1.11
